assay: Inhibition of HIV1 BH10 reverse transcriptase using poly(rA)/oligo(dT)15 as substrate after 60 mins by fluorescence assay; design: species or system Human immunodeficiency virus type 1 BH10
RECORDED_METRIC: IC50 (µM)

>>> measured_value("COCCn1c(=O)nc(-c2ccc(N3CCNCC3)cc2)c2oc3ccc(Cl)cc3c21")
0.01
>>> measured_value("COCCn1c(=O)nc(-c2ccc(N3CCN(C)CC3)cc2)c2oc3ccc(Cl)cc3c21")
0.024
>>> measured_value("COCCn1c(=O)nc(-c2ccc(NCCN3CCCC3)cc2)c2oc3ccccc3c21")
0.12
>>> measured_value("COCCn1c(=O)nc(-c2ccc(NC(=O)CN3CCCC3)cc2)c2oc3ccccc3c21")
0.39
>>> measured_value("CCNCC(=O)Nc1ccc(-c2nc(=O)n(CCOC)c3c2oc2ccc(-c4ccc(CN(C)C)cc4)cc23)cc1")
0.012
>>> measured_value("CCNCC(=O)Nc1ccc(-c2nc(=O)n(CCOC)c3c2oc2cc(-c4ccc(CN(C)C)cc4)ccc23)cc1")
0.0074
>>> measured_value("CCNCC(=O)Nc1ccc(-c2nc(=O)n(CCOC)c3c2oc2ccc(-c4ccccc4)cc23)cc1")
0.033
>>> measured_value("CNCCNc1ccc(-c2nc(=O)n(CCOC)c3c2oc2ccc(Cl)cc23)cc1")
0.01

###

experiment: Solubility of the compound in phosphate buffer at pH 6.8 after 24 hrs by LC-MS analysis; type: physicochemical
RECORDED_METRIC: solubility at 24 h (µg/mL)

>>> measured_value("CCNCC(=O)Nc1ccc(-c2nc(=O)n(CCOC)c3c2oc2ccc(-c4ccc5c(c4)CCN(C)C5)cc23)cc1")
650
>>> measured_value("CN1CCc2cc(-c3ccc4oc5c(-c6ccccc6)nc(=O)n(CCN6CCCC6C(N)=O)c5c4c3)ccc2C1 (stereo not drawn)")
725

###

experiment: Cytotoxicity against human C8166 cells assessed as inhibition of cell viability after 3 days by MTT assay; assay type: cell-based
RECORDED_METRIC: CC50 at 72 h (nM)

>>> measured_value("CCNCC(=O)Nc1ccc(-c2nc(=O)n(CCOC)c3c2oc2ccccc23)cc1")
5100
>>> measured_value("CCNCC(=O)Nc1ccc(-c2nc(=O)n(CCOC)c3c2oc2ccc(Cl)cc23)cc1")
3000
>>> measured_value("CCNCC(=O)Nc1ccc(-c2nc(=O)n(CCOC)c3c2oc2cc(-c4ccc(CN(C)C)cc4)ccc23)cc1")
1000
>>> measured_value("CCNCC(=O)Nc1ccc(-c2nc(=O)n(CCOC)c3c2oc2cc(-c4ccc5c(c4)CCN(C)C5)ccc23)cc1")
2100
>>> measured_value("CNCCNc1ccc(-c2nc(=O)n(CCOC)c3c2oc2ccc(Cl)cc23)cc1")
960
>>> measured_value("CCNCC(=O)Nc1ccc(-c2nc(=O)n(CCOC)c3c2oc2ccc(-c4ccc(CN(C)C)cc4)cc23)cc1")
3900

###

Reported CC50 at 72 h by item:
test: Cytotoxicity against human C8166 cells assessed as inhibition of cell viability after 3 days by MTT assay; assay type: cell-based
RECORDED_METRIC: CC50 at 72 h (µM)

>>> measured_value("CN(C)CC(=O)Nc1ccc(-c2nc(=O)n(C)c3c2oc2ccccc23)cc1")
7.7
>>> measured_value("CNC1CCN(c2ccc(-c3nc(=O)n(CCOC)c4c3oc3ccc(Cl)cc34)cn2)C1 (stereo unspecified)")
4.3
>>> measured_value("COCCn1c(=O)nc(-c2ccc(NC(=O)CN3CCCC3)cc2)c2oc3ccccc3c21")
5.95
